Recorded values, source PubChem BioAssay AID2459.

Molecular target: Female germline-specific tumor suppressor gld-1 (Caenorhabditis elegans)
Test: GLD-1/TGE RNA binding inhibitors, retest, confirmation, biochemical, fluorescence polarization, triplicate (AID 2459);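 also: 0% = GLD-1 with RNA probe and DMSO and 100% = wells lacking GLD-1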
Conditions: GLD-1/FL-TGE RNA fluorescence polarization, at 5.96 µM
The other results are listed elsewhere or left out. Calls of active or inactive are those of the source.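 The calls were made as follows: active = average inhibition across triplicates above the hit cutoff set in the primary screen (cut at about 32% in these data); inactive = the rest.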
# output must be one of active, inactive

Examples with answers:
compound: CC1CC(C)CN(S(=O)(=O)c2cccc(C(=O)N3C(=O)c4cccc(N)c4C3=O)c2)C1 (configuration not stated)
assigned class: inactive
--
compound: COCCOC(=O)c1sc(=S)n(CCOC)c1N
assigned class: active
--
compound: Cc1ccc(/C=N/NC(=O)COc2ccccc2-c2ccccc2)cc1
assigned class: inactive
--
compound: CN(CCOc1ccccc1)C(=O)c1cc(-c2ccco2)nc2ccccc12
assigned class: inactive
--
compound: O=C1c2ccccc2C(=O)c2c1cccc2N1CCN(CCO)CC1
assigned class: inactive

(Q) Please share the test call associated with "O=c1[nH]cccc1-c1nc2ccccc2n1Cc1ccc(Cl)cc1" .
(A) inactive

(Q) Now the compound "Cc1cc2ccccc2n1CCC(=O)O"
(A) inactive

----------
Molecular target: Female germline-specific tumor suppressor gld-1 (Caenorhabditis elegans)
Experiment: GLD-1/TGE RNA binding inhibitors, retest, confirmation, biochemical, fluorescence polarization, triplicate (AID 2459);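 also: 0% = GLD-1 with RNA probe and DMSO and 100% = wells lacking GLD-1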
Conditions: GLD-1/FL-TGE RNA fluorescence polarization, at 5.96 µM, active compounds read high
The other results are listed elsewhere or left out.
outcome measure: inhibition (%)
Your answer is read as %, so omit the unit and give the number.

Solved cases below.
molecule: CNC(=S)NNC(=O)c1oc2nc(-c3ccccc3)cc(-c3ccco3)c2c1N
inhibition / %: -4.28
--
molecule: CC(NC(=O)CSc1nc2c(cc1C#N)CN(C)CC2)c1ccccc1 (stereo not given)
inhibition / %: -6.45
--
molecule: CCOc1cc(C2C(C(=O)OC)=CN(C3CCCC3)C=C2C(=O)OC)cc(Br)c1O
inhibition / %: 31.8

(Q) Which inhibition value belongs to "COc1ccc2[nH]c(C)c(CCN(Cc3cccs3)C(=S)Nc3ccccc3OC)c2c1" ?
(A) -3.16

(Q) Now the molecule "C=C1CCN([C@@H](Cc2ccccc2)C(=O)N2CCOCC2)S(=O)(=O)c2ccccc21"
(A) -0.33

(Q) Now the molecule "COc1cc(C(=O)NCc2ccc3c(c2)cc(C)n3C)cc(OC)c1OC"
(A) 5.96

----------
Biological target: Female germline-specific tumor suppressor gld-1 (Caenorhabditis elegans) (UniProt Q17339)
Sequence (Q17339 whole entry, looked up): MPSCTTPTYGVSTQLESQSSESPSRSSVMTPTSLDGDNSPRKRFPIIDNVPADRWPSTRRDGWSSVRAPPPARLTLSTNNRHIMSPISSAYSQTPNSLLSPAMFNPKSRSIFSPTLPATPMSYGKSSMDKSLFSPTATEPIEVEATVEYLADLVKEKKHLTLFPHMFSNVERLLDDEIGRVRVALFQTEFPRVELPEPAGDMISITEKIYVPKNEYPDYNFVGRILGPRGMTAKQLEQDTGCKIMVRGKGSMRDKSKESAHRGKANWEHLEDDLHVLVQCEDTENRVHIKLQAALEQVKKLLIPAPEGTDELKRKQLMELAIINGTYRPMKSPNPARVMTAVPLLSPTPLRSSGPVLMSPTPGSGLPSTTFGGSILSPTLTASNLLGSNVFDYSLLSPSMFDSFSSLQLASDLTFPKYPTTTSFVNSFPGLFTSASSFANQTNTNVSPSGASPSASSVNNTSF
Assay: GLD-1/TGE RNA binding inhibitors, retest, confirmation, biochemical, fluorescence polarization, triplicate (AID 2459);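 also: 0% = GLD-1 with RNA probe and DMSO and 100% = wells lacking GLD-1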
Settings: GLD-1/FL-TGE RNA fluorescence polarization, at 5.96 µM, active compounds read high
This is one part of the list. The source made the active and inactive calls.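 Rule for the calls: active = average inhibition across triplicates above the hit cutoff set in the primary screen (cut at about 32% in these data); inactive = the rest.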
outcome measure: inhibition

structure smiles string: O=C1c2ccccc2-c2ncnc3c(N4CCOCC4)cc(N4CCOCC4)c1c23
readout value: -4.23% (inactive)

(Q) Which inhibition value belongs to "COc1ccc(Nc2ccc([N+](=O)[O-])cn2)cn1" ?
(A) 18.7% (inactive)

(Q) Now the compound "CCOc1ccc2nc(N3CCCN(C(=O)Nc4ccccc4C)CC3)c(C#N)cc2c1"
(A) 52.2% (active)

(Q) Now the compound "CCCN(CC(=O)Nc1ccccc1OC)C(=O)CCC(=O)c1ccc(F)cc1"
(A) -0.97% (inactive)

(Q) Now the compound "N#CC1=C(N)C(C#N)(C#N)[C@H](c2ccsc2)[C@H]2COCC=C12"
(A) 7.34% (inactive)
